experimental_system: porcine Aminopeptidase N (APN) (Sus scrofa)
Construct: microsomal aminopeptidase from porcine kidney (pAPN, Sigma Aldrich) (18 units/mg protein); purchased Sigma Aldrich; host or cells: porcine kidney (tissue-derived enzyme preparation)
Sequence (P15145 whole entry): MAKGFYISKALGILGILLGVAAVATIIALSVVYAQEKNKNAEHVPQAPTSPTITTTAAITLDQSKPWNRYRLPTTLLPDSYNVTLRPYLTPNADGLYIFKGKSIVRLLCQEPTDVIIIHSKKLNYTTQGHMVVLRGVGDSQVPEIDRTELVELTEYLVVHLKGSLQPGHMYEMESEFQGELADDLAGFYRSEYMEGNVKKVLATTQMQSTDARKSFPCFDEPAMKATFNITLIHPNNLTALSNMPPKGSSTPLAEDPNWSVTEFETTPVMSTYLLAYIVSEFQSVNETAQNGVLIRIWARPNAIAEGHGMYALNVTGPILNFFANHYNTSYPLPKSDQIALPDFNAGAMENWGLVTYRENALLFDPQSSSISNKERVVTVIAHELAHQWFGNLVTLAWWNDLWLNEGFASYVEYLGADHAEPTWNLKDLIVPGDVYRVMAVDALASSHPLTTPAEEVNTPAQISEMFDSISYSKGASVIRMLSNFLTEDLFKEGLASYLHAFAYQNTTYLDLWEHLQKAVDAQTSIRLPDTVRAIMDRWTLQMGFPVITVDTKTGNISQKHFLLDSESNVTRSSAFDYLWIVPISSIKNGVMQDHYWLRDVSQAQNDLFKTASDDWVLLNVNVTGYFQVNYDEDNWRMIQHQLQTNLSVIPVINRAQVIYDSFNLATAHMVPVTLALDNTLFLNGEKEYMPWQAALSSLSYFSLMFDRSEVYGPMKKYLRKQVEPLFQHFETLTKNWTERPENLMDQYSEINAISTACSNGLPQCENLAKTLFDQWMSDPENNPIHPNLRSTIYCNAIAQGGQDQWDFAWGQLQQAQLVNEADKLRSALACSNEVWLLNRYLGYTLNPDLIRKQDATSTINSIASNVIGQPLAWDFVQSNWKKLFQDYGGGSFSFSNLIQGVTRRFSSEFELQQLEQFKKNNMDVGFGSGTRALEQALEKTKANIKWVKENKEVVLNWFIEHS
assay_text: in vitro inhibition assay of aminopeptidase N (spectrophotometric, L-leucine-p-nitroanilide substrate)
Type: biochemical
condition_details: microsomal aminopeptidase from porcine kidney (pAPN), L-leucine-p-nitroanilide 250 μM, PBS pH 7.2, 37° C., 1 hour, UV 405 nm

- chemical_smiles: "N=C(N)NCCC[C@@H]1NC2(CNC(=O)[C@H](CC(N)=O)NC(=O)[C@@H](N)CSSC[C@@H](C(=O)O)NC1=O)COC2"
  IC50: "175 µM"
